Hey, just so you know, these numbers are from ChEMBL document CHEMBL3525939.

# MEASUREMENT_TARGET: Oct2 (Slc22a2) (Rattus norvegicus, UniProt Q9R0W2)
# Sequence (Q9R0W2 whole entry): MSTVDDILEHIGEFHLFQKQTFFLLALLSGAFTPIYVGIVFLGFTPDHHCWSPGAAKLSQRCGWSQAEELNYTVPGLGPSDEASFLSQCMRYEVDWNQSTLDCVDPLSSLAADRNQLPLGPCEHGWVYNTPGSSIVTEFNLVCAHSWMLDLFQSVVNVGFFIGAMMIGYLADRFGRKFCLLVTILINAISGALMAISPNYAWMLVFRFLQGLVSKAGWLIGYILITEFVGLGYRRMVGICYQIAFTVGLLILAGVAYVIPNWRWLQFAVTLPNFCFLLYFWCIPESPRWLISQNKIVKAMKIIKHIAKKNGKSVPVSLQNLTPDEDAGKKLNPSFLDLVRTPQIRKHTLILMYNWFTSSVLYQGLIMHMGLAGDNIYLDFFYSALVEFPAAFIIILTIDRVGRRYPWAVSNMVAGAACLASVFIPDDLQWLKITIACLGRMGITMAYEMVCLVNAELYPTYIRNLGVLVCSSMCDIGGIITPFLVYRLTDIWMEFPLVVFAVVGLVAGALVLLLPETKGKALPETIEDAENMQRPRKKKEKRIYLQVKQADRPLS
# METHOD_DESCRIPTION: Drug uptake in rat Oct2 expressed HEK293 cells at 10 nM at pH 7.4 at 37 degC after 1 min relative to mock cells
# Type: ADME, cell-based
# CONDITION_PARAMETERS: HEK293 cells expressing rat Oct2, pH 7.4, read-out: FC

>  <TEST_SMILES>
C[N+]1(C)[C@@H]2C[C@@H](OC(=O)C(O)(c3cccs3)c3cccs3)C[C@@H]1[C@H]1O[C@H]12.[Br-]

>  <uptake ratio at 1 min, 0.01 µM>
3

$$$$
